Biological target: Mu-type opioid receptor (Rattus norvegicus)
Sequence (P33535 whole entry): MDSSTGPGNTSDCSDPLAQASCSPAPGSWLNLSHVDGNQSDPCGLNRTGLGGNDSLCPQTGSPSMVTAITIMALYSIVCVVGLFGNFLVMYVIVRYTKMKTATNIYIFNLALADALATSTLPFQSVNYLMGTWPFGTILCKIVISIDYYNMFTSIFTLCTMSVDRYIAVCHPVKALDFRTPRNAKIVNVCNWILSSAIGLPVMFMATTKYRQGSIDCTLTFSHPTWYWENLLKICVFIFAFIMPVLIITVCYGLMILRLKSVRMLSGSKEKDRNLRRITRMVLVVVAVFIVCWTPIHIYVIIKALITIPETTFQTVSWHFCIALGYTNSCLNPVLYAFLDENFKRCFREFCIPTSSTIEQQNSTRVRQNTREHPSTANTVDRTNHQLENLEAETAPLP
Where a SMILES comes first, the peptide text is derived from it. [ ]: non-standard residue; d: D form. ξ: configuration not given here. Dmt = Cc1cc(O)cc(C)c1C[C@H](N)C(=O)O; ξTiq(1-COOH) = O=C(O)C1NCCc2ccccc21; β3hF = N[C@H](CC(=O)O)Cc1ccccc1
measured-metric: pKi
# log scale: pKi equals minus log10 of the concentration in mol/L

NC(=O)C(Cc1ccc2ccccc2c1)NC(=O)[C@H](O)[C@H](Cc1ccccc1)NC(=O)[C@@H]1CCCN1C(=O)[C@@H](N)Cc1ccc(O)cc1 (stereo not given in full) :: 7.41

Incoming: Query for Mu-type opioid receptor (Rattus norvegicus): what pKi does the record show for Cc1cc(O)cc(C)c1C[C@H](N)C(=O)N1CCc2ccccc2C1C(=O)N[C@@H](Cc1c[nH]c2ccccc12)C(=O)N[C@H](CC(N)=O)Cc1ccccc1 (stereo partly drawn) (H-[Dmt][ξTiq(1-COOH)]W[β3hF]-NH2) ?
Outgoing: 7.85

Incoming: Give recorded pKi with Mu-type opioid receptor (Rattus norvegicus) for the following molecule: NC(=O)[C@H](O)[C@H](Cc1ccccc1)NC(=O)[C@H](Cc1ccccc1)NC(=O)[C@@H]1CCCN1C(=O)[C@@H](N)Cc1ccc(O)cc1
Outgoing: 7.48

Incoming: Hi! What's the reported pKi for NC(=O)[C@@H](O)[C@@H](Cc1ccccc1)NC(=O)[C@H](Cc1c[nH]c2ccccc12)NC(=O)[C@@H]1CCCN1C(=O)[C@@H](N)Cc1ccc(O)cc1 on Mu-type opioid receptor (Rattus norvegicus)?
Outgoing: 6.75

Incoming: Item Cc1cc(O)cc(C)c1C[C@H](N)C(=O)N1CCc2ccccc2C1C(=O)N[C@H](CC(=O)N[C@@H](Cc1ccccc1)C(N)=O)Cc1ccccc1 (stereo partly drawn) (H-[Dmt][ξTiq(1-COOH)][β3hF]F-NH2) with Mu-type opioid receptor (Rattus norvegicus) - pKi?
Outgoing: 8.22

Incoming: Tell me reported pKi for Cc1cc(O)cc(C)c1C[C@H](N)C(=O)N1CCc2ccccc2C1C(=O)N[C@@H](Cc1ccccc1)[C@@H](O)C(=O)N[C@@H](Cc1ccccc1)C(N)=O (stereo not given in full) , tested with Mu-type opioid receptor (Rattus norvegicus).
Outgoing: 8.10
